// data source = paper PMC10244618

B1: NF2 (merlin) isoform 7, human, full length (507 aa, lacks exons 2-3 = isoform-1 residues 39-121; exon-16 C-terminus), P35240-4 (parent)
chain: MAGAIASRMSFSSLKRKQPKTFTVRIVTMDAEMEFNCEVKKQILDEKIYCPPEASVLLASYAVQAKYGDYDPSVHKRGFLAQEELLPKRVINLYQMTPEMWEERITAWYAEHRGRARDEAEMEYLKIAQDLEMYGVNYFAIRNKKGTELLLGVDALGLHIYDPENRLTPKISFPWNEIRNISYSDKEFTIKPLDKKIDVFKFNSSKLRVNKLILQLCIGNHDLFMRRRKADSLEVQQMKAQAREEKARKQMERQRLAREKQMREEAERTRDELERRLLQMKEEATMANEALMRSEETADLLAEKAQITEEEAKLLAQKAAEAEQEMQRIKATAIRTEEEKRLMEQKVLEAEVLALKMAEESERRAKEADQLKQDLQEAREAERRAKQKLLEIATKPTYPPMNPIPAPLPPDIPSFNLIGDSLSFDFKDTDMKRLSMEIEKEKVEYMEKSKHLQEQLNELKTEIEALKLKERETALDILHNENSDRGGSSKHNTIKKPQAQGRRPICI

# Variants of: B1
# Test Summary: reverse yeast two-hybrid deep mutational scan (rY2H-seq): NF2 isoform 7 mutant library as bait mated with wild-type prey strains; selection on medium lacking adenine for non-interacting pairs; NextSeq paired-end sequencing; enrichment vs …
# Particulars: with KDM1A (lysine-specific histone demethylase 1A; the table's label AOF2 is a gene synonym of KDM1A), O60341; yeast diploids after mating (RBait_S3 x RPrey_S3), 30 °C, selection for reporter genes on NB agar; human tyrosine kinase ABL2 co-expressed as the active kinase …; HIGHER = WEAKER BINDING (the opposite of display enrichments): higher = stronger loss of interaction: reverse Y2H selects yeast in which bait and prey do NOT interact (growth without adenine), so a …; hits-only table; scale: rY2H score; numbering: uniprot, sequence starts at 1
Quantity Measured: enrichment

Q345T :: 6.27
E245Y :: 1.47
A59V :: 1.61

[a] E349T
[b] D299L
[c] Q64P
Arrange by enrichment, high to low. Return the labels ranked in the requested order, please.
c, b, a
(c: 6.87, b: 4.23, a: 2.75)

[1] R335K
[2] R253Q
When their enrichment values are compared, which is larger, 1 or 2 ? Reply briefly: the label of your chosen item.
1
(1: 3.19, 2: 1.48)

[P] H75S
[Q] P163K
[R] L156P
[S] I141A
Arrange by enrichment, high to low. Return the labels ranked in the requested order, please.
S, Q, P, R
